These data points were gathered from ChEMBL document CHEMBL1833934.

Assay: Dissociation constant, pKa of the compound
Assay type: physicochemical
Decision: pKa >= 7 yields Y, all other cases yield N.

# input # check: pKa of CC(C)CN1C(=O)CN(Cc2ccc(-c3ccc(F)c(CN4CCOCC4)n3)cc2)C1=O is greater than or equal to 7
# output N

# input Request: CCCN1C(=O)CN(Cc2ccc(-c3ccc(F)c(CN4CCCCC4)n3)cc2)C1=O
# output Y

# input Request: CC(C)CN1C(=O)CN(Cc2ccc(-c3cccc(CN4CCCC(F)C4)n3)cc2)C1=O (stereo unspecified)
# output Y

# input Request: CC(C)CN1C(=O)CN(Cc2ccc(-c3cccc(CN4CCS(=O)(=O)CC4)n3)cc2)C1=O
# output N

# input Request: CN1C(=O)CN(Cc2ccc(-c3cccc(CN4CCCCC4)n3)cc2)C1=O
# output Y

# input Request: O=C1CN(Cc2ccc(-c3ccc(F)c(CN4CCCCC4)n3)cc2)C(=O)N1CC1CC1
# output Y
